These data points were gathered from paper PMC3596085.

Test: VNI oral pharmacokinetics in mouse plasma
Format: in vivo
Settings: 25 mg/kg
readoutName: concentration at 8 h

[in] GET /values?readout=concentration at 8 h&item= O=C(N[C@@H](Cn1ccnc1)c1ccc(Cl)cc1Cl)c1ccc(-c2nnc(-c3ccccc3)o2)cc1
[out] > 20 µM

---

Experiment: Acute mice toxicity study
Type: in vivo, mouse
Settings: female, Swiss Webster, mouse, in vivo, po
readoutName: NOAEL at 48 h (mg/kg)
Note: unit mg/kg is implicit; provide only the numeric part.

[in] GET /values?readout=NOAEL at 48 h&item= O=C(N[C@@H](Cn1ccnc1)c1ccc(Cl)cc1Cl)c1ccc(-c2nnc(-c3ccccc3)o2)cc1
[out] 400

---

Assay: VNI oral pharmacokinetics in mouse plasma
Type: in vivo
Details: 25 mg/kg
readoutName: concentration at 2 h (µM)
Note: unit µM is implicit; provide only the numeric part.

[in] GET /values?readout=concentration at 2 h&item= O=C(N[C@@H](Cn1ccnc1)c1ccc(Cl)cc1Cl)c1ccc(-c2nnc(-c3ccccc3)o2)cc1 [VNI]
[out] 40

---

Target: human CYP3A4 (Homo sapiens)
Sequence (P08684 whole entry): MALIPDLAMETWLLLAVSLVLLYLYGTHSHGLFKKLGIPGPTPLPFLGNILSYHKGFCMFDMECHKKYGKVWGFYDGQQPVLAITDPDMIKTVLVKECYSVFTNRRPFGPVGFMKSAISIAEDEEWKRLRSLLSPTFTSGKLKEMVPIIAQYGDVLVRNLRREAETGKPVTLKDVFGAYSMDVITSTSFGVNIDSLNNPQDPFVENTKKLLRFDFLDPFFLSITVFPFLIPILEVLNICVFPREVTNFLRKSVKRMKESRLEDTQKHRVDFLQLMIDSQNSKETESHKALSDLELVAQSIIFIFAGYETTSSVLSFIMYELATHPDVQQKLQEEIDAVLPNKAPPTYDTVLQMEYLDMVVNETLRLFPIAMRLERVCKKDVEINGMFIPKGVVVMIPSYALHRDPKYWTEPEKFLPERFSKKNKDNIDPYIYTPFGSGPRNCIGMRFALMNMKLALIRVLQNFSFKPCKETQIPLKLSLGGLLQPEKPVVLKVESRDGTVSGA
Test: Inhibitory effect on CYP3A4
readoutName: pIC50
Give only the number. pIC50 is defined as minus log10 of concentration in molar units.

[in] Requested read-out pIC50, target or system human CYP3A4 (Homo sapiens), entry O=C(N[C@@H](Cn1ccnc1)c1ccc(Cl)cc1Cl)c1ccc(-c2nnc(-c3ccccc3)o2)cc1
[out] 6.39

---

Experiment: Growth inhibition assay using 5-bromodeoxyuridine incorporation
Type: cell-based, mouse
Conditions: mouse
readoutName: viability at 24 h, 50 µM (%)
Note: unit % is implicit; provide only the numeric part.

[in] GET /values?readout=viability at 24 h, 50 µM&item= CC(=O)N1CCN(c2ccc(OCC3COC(Cn4ccnc4)(c4ccc(Cl)cc4Cl)O3)cc2)CC1 (stereo not shown) [Ketoconazole, reference compound]
[out] 0
